Catalogue of IL-2 production, SEB-dependent PBMC stimulation test, 0.016 ug/ml, N = 2 readings, one per entry.
- measured.on: T1, human LAG-3 on cells (HEK293-hLAG-3 stable cell line) (human, UniProt P18627 23-525)
- T1 sequence: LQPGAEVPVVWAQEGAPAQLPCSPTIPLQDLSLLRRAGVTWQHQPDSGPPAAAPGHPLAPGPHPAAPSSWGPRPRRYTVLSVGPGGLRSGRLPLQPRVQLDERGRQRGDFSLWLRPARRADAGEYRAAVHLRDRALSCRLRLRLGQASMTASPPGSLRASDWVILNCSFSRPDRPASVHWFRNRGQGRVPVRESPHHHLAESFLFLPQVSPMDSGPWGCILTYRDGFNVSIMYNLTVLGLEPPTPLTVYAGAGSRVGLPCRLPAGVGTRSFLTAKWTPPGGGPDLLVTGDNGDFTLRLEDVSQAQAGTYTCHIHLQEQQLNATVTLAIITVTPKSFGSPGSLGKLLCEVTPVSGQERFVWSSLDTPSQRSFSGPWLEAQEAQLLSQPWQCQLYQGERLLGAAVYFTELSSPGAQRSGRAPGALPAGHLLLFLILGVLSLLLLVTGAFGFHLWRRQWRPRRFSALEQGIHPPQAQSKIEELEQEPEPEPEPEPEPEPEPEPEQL
- experimental.details: cell-based or functional assay
endpoint.label: IL-2 production, SEB-dependent PBMC stimulation test, 0.016 ug/ml, N = 2 (pg/mL)

• 105F1E10 mouse-human chimeric antibody (antibody, V domains shown, also called mAb009-105F1E10) VH: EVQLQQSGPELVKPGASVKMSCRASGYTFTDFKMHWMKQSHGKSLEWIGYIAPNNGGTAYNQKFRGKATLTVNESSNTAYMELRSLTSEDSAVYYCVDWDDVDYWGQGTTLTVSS VL: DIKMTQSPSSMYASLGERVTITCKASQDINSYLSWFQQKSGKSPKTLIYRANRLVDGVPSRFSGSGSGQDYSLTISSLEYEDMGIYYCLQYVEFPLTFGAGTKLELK = 1520
• 409D4E10 mouse-human chimeric antibody (antibody, V domains shown, also called mAb112-409D4E10) VH: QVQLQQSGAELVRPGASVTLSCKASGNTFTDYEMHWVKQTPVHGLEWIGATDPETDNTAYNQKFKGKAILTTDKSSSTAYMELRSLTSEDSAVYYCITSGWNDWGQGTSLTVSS VL: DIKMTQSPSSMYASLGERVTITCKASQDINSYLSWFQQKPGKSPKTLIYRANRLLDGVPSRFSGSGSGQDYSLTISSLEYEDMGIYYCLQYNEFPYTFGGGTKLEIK = 1450
• 409B11E12 mouse-human chimeric antibody (antibody, V domains shown, also called mAb104-409B11E12) VH: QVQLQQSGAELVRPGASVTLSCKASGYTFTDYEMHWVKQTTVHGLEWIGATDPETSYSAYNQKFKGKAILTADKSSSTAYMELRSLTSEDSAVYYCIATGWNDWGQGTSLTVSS VL: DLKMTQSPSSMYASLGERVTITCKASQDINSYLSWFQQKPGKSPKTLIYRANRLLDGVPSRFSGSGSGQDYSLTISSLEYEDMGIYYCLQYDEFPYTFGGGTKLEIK = 1230
• 405B8H3 mouse-human chimeric antibody (antibody, V domains shown, also called mAb103-405B8H3) VH: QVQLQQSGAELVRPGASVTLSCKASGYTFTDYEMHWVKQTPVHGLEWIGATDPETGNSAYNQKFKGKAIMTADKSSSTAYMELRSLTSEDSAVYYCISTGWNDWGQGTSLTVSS VL: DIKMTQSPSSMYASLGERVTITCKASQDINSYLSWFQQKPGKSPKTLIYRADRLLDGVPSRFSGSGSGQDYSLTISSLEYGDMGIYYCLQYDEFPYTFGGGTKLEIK = 1770
• 556F6B8 mouse-human chimeric antibody (antibody, V domains shown, also called mAb123-556F6B8; 556F8B8) VH: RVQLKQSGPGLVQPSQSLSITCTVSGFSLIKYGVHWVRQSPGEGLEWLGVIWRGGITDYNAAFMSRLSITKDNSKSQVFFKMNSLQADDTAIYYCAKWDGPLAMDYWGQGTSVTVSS VL: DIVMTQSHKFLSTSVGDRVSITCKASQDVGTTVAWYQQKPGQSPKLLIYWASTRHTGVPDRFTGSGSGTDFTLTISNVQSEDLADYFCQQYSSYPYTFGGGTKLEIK = 2010
